B1: Twister Ribozyme (parent)
chain: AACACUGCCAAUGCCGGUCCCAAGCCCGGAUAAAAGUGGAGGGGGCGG

- Variants of: B1
- Run Description: self-cleavage, relative activity (ratio to wild type); higher = more cleavage; co-transcriptional
Observed Property: self-cleavage
Form field (numeric): enter value without unit.

What self-cleavage value was documented for this variant, G17C A22U ?
0.0369

Now the same for U6G G38C
0.168

Now the same for A11C C26G
0.08

Now the same for A1U G45U
0.0565

Now the same for A4C C46A
0.063

Now the same for G24U G41U
0.0892

Now the same for A40C
0.262

Now the same for A1G C21U
0.146

Now the same for A2C A4U
0.0426

Now the same for G13U A30U
0.749

Now the same for A11C U31C
0.876

Now the same for A11G A30C
0.861

Now the same for U6G G41A
0.156

Now the same for U18G C20A
0.057

Now the same for G7C G48A
0.0718

Now the same for C9G A11G
0.715

Now the same for G29U A34C
0.185

Now the same for G13A G45U
0.539

Now the same for A40G G45U
0.147

Now the same for A10G C27G
0.105

Now the same for C25A G28C
0.146

Now the same for G36A G44C
0.762
